# tested.target: Tlp3 LBD (Campylobacter jejuni subsp. jejuni, UniProt Q0P864)
# Sequence (Q0P864 entry or part of it): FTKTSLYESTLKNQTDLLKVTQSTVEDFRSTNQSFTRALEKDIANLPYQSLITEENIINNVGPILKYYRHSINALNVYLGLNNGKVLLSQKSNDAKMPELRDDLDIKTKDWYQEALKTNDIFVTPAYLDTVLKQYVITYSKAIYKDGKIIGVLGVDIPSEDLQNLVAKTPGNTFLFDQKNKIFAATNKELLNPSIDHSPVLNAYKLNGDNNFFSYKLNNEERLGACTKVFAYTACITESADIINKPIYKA
# test.details: Isothermal titration calorimetry (ITC)
# Type: binding, C. jejuni strain NCTC 11168
# condition.label: ITC binding entropy, 25 °C
Criterion: ∆S strictly less than -4 cal mol^−1 deg^−1. Met: fulfilled. Not met: not fulfilled.

{"columns": ["molecule", "classification"],
 "data": [
  ["CC(C)[C@H](N)C(=O)O", "not fulfilled"],
  ["N[C@@H](Cc1ccccc1)C(=O)O", "fulfilled"],
  ["CCC[C@@H](N)C(=O)O", "fulfilled"]
]}

Please look at the following molecule next.
Identify whether the molecule "C[C@H](N)C(=O)O" records ∆S below -4 cal mol^−1 deg^−1. fulfilled

====

# tested.target: Tlp3 LBD (Campylobacter jejuni subsp. jejuni, UniProt Q0P864)
# test.details: Isothermal titration calorimetry (ITC)
# Format: binding, C. jejuni strain NCTC 11168
# condition.label: ITC binding enthalpy, 25 °C
# Method: Tlp3 LBD was dialysed against a buffer containing 100 mM Tris-HCl pH 8.0 and 150 mM NaCl. […] Calorimetry measurements were conducted on a VP-ITC MicroCal calorimeter (Malvern Instruments, UK) at 25 °C. The Tlp3 LBD sample (10 µM) in a 1.45 mL reaction cell was titrated with 25 successive 10 µL injections of ligand solution at a spacing of 200 s. All measurements were made in triplicate and corrected for heat changes measured when the ligand was titrated into the buffer. […]
readout.label: ∆H
Could you write the number and then its unit?

{"columns": ["compound", "readout.label", "test.value"],
 "data": [
  ["CCC[C@@H](C)C(N)C(=O)O (stereo in doubt) [β-methyl-L-norleucine]", "∆H", "-6.2 ± 0.2 kcal/mol"],
  ["CCC[C@@H](N)C(=O)O [α-amino-N-valeric acid]", "∆H", "-6.5 ± 0.2 kcal/mol"],
  ["CCC(C)(C)[C@H](N)C(=O)O [3-methyl-L-isoleucine]", "∆H", "-5.7 ± 0.2 kcal/mol"],
  ["CC(C)[C@H](C)[C@H](N)C(=O)O [4-methyl-L-isoleucine]", "∆H", "-5.1 ± 0.2 kcal/mol"]
]}

Alright, here's another compound for you.
I'd like to know its ∆H. The compound in question is C[C@H](N)C(=O)O [L-alanine] -150.2 ± 54.5 kcal/mol

====

# tested.target: Tlp3 LBD (Campylobacter jejuni subsp. jejuni)
# test.details: Isothermal titration calorimetry (ITC)
# Format: binding, C. jejuni strain NCTC 11168
# condition.label: ligand at 10 mM, 10 µM Tlp3 LBD
readout.label: Binding to Tlp3 LBD detected by ITC

Worked cases, Binding to Tlp3 LBD detected by ITC given:
{"columns": ["molecule", "Binding to Tlp3 LBD detected by ITC"],
 "data": [
  ["Nc1ccn([C@H]2C[C@H](O)[C@@H](CO)O2)c(=O)n1 [2-deoxycytidine]", "no binding"],
  ["N[C@@H](CC(=O)O)C(=O)O [L-aspartic acid]", "no binding"],
  ["C[C@H](N)C(=O)N[C@H](C(=O)O)[C@H](C)O [Ala-Thr]", "no binding"],
  ["NCCCC[C@H](N)C(=O)O [L-lysine]", "no binding"]
]}

I'd like to know its Binding to Tlp3 LBD detected by ITC. The molecule in question is COC(=O)C(C)=O [methyl pyruvate] no binding

I'd like to know its Binding to Tlp3 LBD detected by ITC. The molecule in question is N=C(N)NCCC[C@H](N)C(=O)O [L-arginine] no binding
